meta.source: ChEMBL document CHEMBL1131149

# IC50 annotations
- assay_target: Cholinesterase (Homo sapiens)
- Sequence (P06276 whole entry): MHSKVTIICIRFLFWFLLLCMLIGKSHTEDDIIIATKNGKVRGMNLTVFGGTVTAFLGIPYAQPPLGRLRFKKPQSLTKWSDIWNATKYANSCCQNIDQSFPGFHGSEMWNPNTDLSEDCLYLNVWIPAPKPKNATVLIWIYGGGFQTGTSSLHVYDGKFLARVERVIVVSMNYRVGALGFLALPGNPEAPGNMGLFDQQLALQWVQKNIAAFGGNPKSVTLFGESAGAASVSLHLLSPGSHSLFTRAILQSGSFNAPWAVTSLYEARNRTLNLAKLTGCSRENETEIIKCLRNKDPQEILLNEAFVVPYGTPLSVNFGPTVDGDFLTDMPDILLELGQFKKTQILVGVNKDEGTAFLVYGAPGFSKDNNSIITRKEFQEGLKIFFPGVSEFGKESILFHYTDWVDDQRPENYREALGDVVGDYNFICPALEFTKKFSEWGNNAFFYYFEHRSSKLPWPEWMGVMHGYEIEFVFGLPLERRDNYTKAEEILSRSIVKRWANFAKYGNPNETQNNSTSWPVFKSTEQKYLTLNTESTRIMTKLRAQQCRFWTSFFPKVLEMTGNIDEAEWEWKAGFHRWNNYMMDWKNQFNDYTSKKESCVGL
Please give a number only; it is taken to be in µM.

Please review the entries below; each comes with its answer.
COc1ccccc1CNCCCCCCNCCCCCCCCNCCCCCCNCc1ccccc1OC: 0.977
COc1ccccc1CNCCCCCC(=O)NCCCCCCCCNC(=O)CCCCCNCc1ccccc1OC: 11.5
NCCCCCCNCCSSCCNCCCCCCN: 646
COc1ccccc1CN(C)CCCCCC(=O)N(C)CCCCCCCCN(C)C(=O)CCCCCN(C)Cc1ccccc1OC: 11.7
COc1ccccc1CNCCCCCCNCCCCCNCCCCCCNCc1ccccc1OC: 8.71

Read the next record carefully.
Prompt: Enter reported IC50 observed with Cholinesterase (Homo sapiens) for COc1ccccc1CNCCCCCC(=O)N(C)CCCCCCCCN(C)C(=O)CCCCCNCc1ccccc1OC
Response: 6.03

----------
- assay_target: Cholinesterase (Homo sapiens)
# pIC50 annotations
Give only the number. pIC50 is defined as minus log10 of concentration in molar units.

Please review the entries below; each comes with its answer.
COc1ccccc1CNCCCCCCNCCCCCCCNCCCCCCNCc1ccccc1OC: 5.43
COc1ccccc1CNCCCCCCNCCCCCCNCCCCCCNCc1ccccc1OC: 5.86

Read the next record carefully.
Prompt: Enter reported pIC50 observed with Cholinesterase (Homo sapiens) for COc1ccccc1CNCCCCCCNCCSSCCNCCCCCCNCc1ccccc1OC [BENEXTRAMINE]
Response: 5.21
